Known Population Healthy Nuclei (%) of a selection of molecules
System: Fibroblast
Method Description: Multiplex assay against human fibroblast
Format: toxicity, cell-based
Condition Notes: 48 h, 1 µM, compound concentration 1 uM, replicate 1
Quote the value and follow it with the unit of measurement.

Take a look at these entries with their results.
// Cc1ccccc1C(c1ccccc1C)N1C2CCC1CC(O)(c1ccccc1)C2 (stereo not drawn) : Population Healthy Nuclei (%) value = 51%

The measured Population Healthy Nuclei (%) associated with C[C@]12CC[C@@H]3c4ccc(O)cc4CC[C@H]3[C@@H]1CC[C@@H]2O reads 51%

New cases:
Record O=C(c1cc2c(cc1F)OC(c1ccc(F)cc1)(c1ccc(Cl)cc1Cl)O2)N1CCOCC1 (stereo not drawn) . Reported Population Healthy Nuclei (%): 50%

---

System: Fibroblast
Method Description: Multiplex assay against human fibroblast
Format: toxicity, cell-based
Condition Notes: 48 h, 10 µM, compound concentration 10 uM, replicate 1
Measurement Kind: Population Apoptotic (%)

Previously resolved entries follow.
Case CCCSc1nc(N[C@@H]2C[C@H]2c2ccc(F)c(F)c2)c2nnn([C@@H]3C[C@H](OCCO)[C@@H](O)[C@H]3O)c2n1 [TICAGRELOR] , Fibroblast, Population Apoptotic (%) recorded as 69%

// compound O=c1cc(N2CCOCC2)oc2c(-c3cccc4c3sc3ccccc34)cccc12 , assay Fibroblast, Population Apoptotic (%) value: 68%

---
# Population Apoptotic (%) measured on Fibroblast for item COc1cc(Nc2nccc(-c3cnn4nc(OC)ccc34)n2)cc(C(F)(F)F)c1 = 69%

---

The following molecules are listed with their measured Population Mitotic Cells (%) values.
Tested on: U2OS
Method Description: Multiplex assay against U2OS
Format: toxicity, cell-based
Condition Notes: human, 12 h, 1 µM, compound concentration 1 uM, replicate 2
Hi! Could you send only the number? It should be in %, unit omitted.

Value of measured Population Mitotic Cells (%) for the entry CC(C)(C)NC[C@H](O)COc1nsnc1N1CCOCC1 : 0

Entry COc1cc(Nc2nccc(-c3cnn4nc(OC)ccc34)n2)cc(C(F)(F)F)c1 — recorded Population Mitotic Cells (%) = 50

Population Mitotic Cells (%) reading for C=CC(=O)Nc1cccc(Sc2nc(Nc3ccc(N4CCN(C)CC4)cc3)ncc2Cl)c1 : 5

---

Tested on: U2OS
Method Description: Multiplex assay against U2OS
Type: toxicity, cell-based
Condition Notes: human, 12 h, 10 µM, compound concentration 10 uM, replicate 2
Parameter class (string): assigned from measured Population Mitochondria Different-Phenotype (%). Ranges: interval 1: < 10%; interval 2: ≥ 10% and < 30%; interval 3: ≥ 30%

As a guide, the following entries are already answered.
Prompt: Place this compound in its band: Cc1nc(N2CC[C@H](O)C2)ncc1-c1cc(C(F)(F)F)cc2[nH]ncc12
Completion: interval 3

Prompt: Which of the defined bands does the recorded Population Mitochondria Different-Phenotype (%) of CC(C)NC(=O)N1CC[C@H](NC2=Nc3cc(F)ccc3N(CC(F)F)c3ccc(Cl)cc32)C1 sit within?
Completion: interval 3

Prompt: Class label required: O=c1cc(N2CCOCC2)oc2c(-c3cccc4c3sc3ccccc34)cccc12
Completion: interval 3

Next:
Prompt: Band assignment needed for COc1cc(Nc2nccc(-c3cnn4nc(OC)ccc34)n2)cc(C(F)(F)F)c1 please.
Completion: interval 1

Prompt: Entry CNC(=O)Nc1ccc2c(c1)[C@@]1(CC2)OC(=O)N(CC(=O)N(Cc2ccc(F)cc2)[C@@H](C)C(F)(F)F)C1=O [A-486] belongs to which category?
Completion: interval 2

Prompt: Exam item: assign CC1=C(C(=O)Nc2cc3cn[nH]c3cc2F)C(c2ccc(C(F)(F)F)cc2)CC(=O)N1 (configuration not stated) to the correct category.
Completion: interval 2

Prompt: Assign a bin to Cl.O=C(O)c1cc(-c2ccc(C3CCNCC3)cc2)c2ccc(-c3ccc(C(F)(F)F)cc3)cc2c1
Completion: interval 2

Prompt: Which bin, given its Population Mitochondria Different-Phenotype (%), does O=C(c1cc2c(cc1F)OC(c1ccc(F)cc1)(c1ccc(Cl)cc1Cl)O2)N1CCOCC1 (configuration not stated) occupy?
Completion: interval 3

Prompt: Exercise: read the entry CC(C)OC(=O)N1CCC(Oc2ncnc3c2cnn3-c2ccc(S(C)(=O)=O)cc2F)CC1 and state which class it falls under.
Completion: interval 1
